// provenance: the Kinase Knowledgebase extract (Sharma et al. 2016)

target: UniProtKB P24941
Kindly state IC50 for each of the entries shown.
One number for each entry, in µM.

Check out these entries, answers already filled in.
Nc1cc2cnc(Nc3ccc(N4CCNCC4)cc3)nc2n(C2CCCC2)c1=O | 0.095
O=c1ccc2cnc(Nc3ccc(N4CCNCC4)cc3)nc2n1C1CCCCC1 | 0.119
Cc1cc2cnc(Nc3ccc(N4CCNCC4)cc3)nc2n(C2CCCC2)c1=O | 0.059
Cc1c(Br)c(=O)n(C2CCCC2)c2nc(Nc3ccc(N4CC(C)NC(C)C4)cc3)ncc12 (stereo not drawn) | 1.86
CCc1cc2cnc(Nc3ccc(N4CCC(O)CC4)cc3)nc2n(C2CCCC2)c1=O | 0.179
CCOC(=O)c1cc2cnc(Nc3ccc(N4CCNCC4)cc3)nc2n(C2CCCC2)c1=O | 5.95
CCc1cc2cnc(Nc3ccc(N4CCNCC4)cc3)nc2n(C2CCCC2)c1=O | 0.142

// below: IC50 requested for another compound
Hello, I am looking for reported IC50 with UniProtKB P24941 for CC(=O)c1c(C)c2cnc(Nc3ccc(N4CCNCC4)cc3)nc2n(C2CCCC2)c1=O . Could you help?
0.233
